- ASSAY TEXT: microbe, parasite or virus in culture
- SETUP CONDITIONS: Mycobacterium tuberculosis, 96 h, read-out: pIC50 (converted)
Each entry below carries its recorded IC50.
State the answer as a number, implicitly in µM.

A selection of reference data follows.
COMPOUND	IC50 (µM)
Cc1nc(C2CN(Cc3ccc(F)cc3Br)CCO2)no1 (stereo unspecified)	11.2
CCc1nc(CN2CCCN(c3cnc4ccccc4n3)CC2)no1	26.5

Next item in the queue.
Exam item: Return IC50 for the following compound: CC1COC2(CCN(C(=O)c3ccc(Cl)s3)CC2)O1 (stereo unspecified)
Marked response: 45.1

---

Each entry below carries its recorded Percent Effect.
- Test system: Schistosoma mansoni
- ASSAY TEXT: High throughput screening of compounds against Schistosoma mansoni motility
- Assay type: functional
- Design: dose or concentration left out as unconfirmed
State the answer as a number, implicitly in %.

COMPOUND	TEST SYSTEM	Percent Effect / %
O=C(CSc1nc2c(cnn2CCO)c(=O)[nH]1)N1CCCCCC1	Schistosoma mansoni	-11.33

Next item in the queue.
Exam item: Return Percent Effect for the following compound: O=C(CN1CCc2ccccc21)Nc1ccc(OC(F)F)cc1
Marked response: 42

---

- ASSAY TEXT: microbe, parasite or virus in culture
- SETUP CONDITIONS: Mycobacterium tuberculosis, 96 h, read-out: pIC50 (converted)
Each entry below carries its recorded IC50.

COMPOUND	RESULT
Cc1cccc(NCCCNC(=O)c2cccs2)n1	> 501 µM
CN(Cc1c(F)cccc1Cl)S(=O)(=O)N1CCOCC1	269 µM
CNC(=O)c1sc(NC2CC2)nc1C	88.1 µM
COc1cccc(CNc2nc(C)no2)c1	> 501 µM

Exam item: Return IC50 for the following compound: CCC(CO)Nc1nccc(C(F)(F)F)n1 (stereo unspecified)
Marked response: > 501 µM

Exam item: Return IC50 for the following compound: N#CC1(C(=O)NCCCNc2ccc(C(F)(F)F)cn2)CCCC1
Marked response: 1.69 µM

Exam item: Return IC50 for the following compound: O=C(Nc1nccs1)c1csc(NC2CCCC2)n1
Marked response: 34.5 µM

Exam item: Return IC50 for the following compound: CS(=O)(=O)N1CCC(NCCSc2cnn[nH]2)CC1
Marked response: > 501 µM

Exam item: Return IC50 for the following compound: O=C(NCCOc1ncccc1Cl)c1ccsc1
Marked response: 145 µM

Exam item: Return IC50 for the following compound: CCc1c(C)sc(NC(=O)CN2CCN(CC)CC2)c1C(=O)OC
Marked response: 15.4 µM

Exam item: Return IC50 for the following compound: CCC(N)c1cnn(CC)c1 (stereo unspecified)
Marked response: > 501 µM

Exam item: Return IC50 for the following compound: COc1ccc(S(=O)(=O)Nc2cccc(CN)c2)cc1
Marked response: > 501 µM

Exam item: Return IC50 for the following compound: Cc1cc(C[C@@H]2COC[C@H]2NCc2ccc(C(C)C)cc2)on1
Marked response: 11.5 µM

Exam item: Return IC50 for the following compound: CC(C)[C@@H]1CN(C(=O)NCc2ccco2)C[C@H]1N(C)C
Marked response: > 50.1 µM

Exam item: Return IC50 for the following compound: CCN(C)Cc1nc(-c2ccccc2NS(C)(=O)=O)oc1C
Marked response: > 50.1 µM

Exam item: Return IC50 for the following compound: CCCOc1ccc(CNC(=O)c2cc[nH]n2)cn1
Marked response: > 501 µM

Exam item: Return IC50 for the following compound: CN(Cc1nnc2n1CCC2)C(=O)c1ccc2c(c1)OCCCO2
Marked response: > 50.1 µM
